These entries and their values trace back to patent US20100056516A1.

Subject Of Test: HIV integrase (Human immunodeficiency virus type 1 group M subtype B, UniProt P04585)
Assay Explanation: integrase strand transfer assay (STA)
Type: biochemical
Test Settings: STA (IC50, μM), integrase strand-transfer assay, Example 269
Measured Parameter: log10 IC50 (log10 of the value in µM)
Hey, these are logged values: log10 of IC50, µM being the unit before logging.

In the examples that follow, each entry is paired with its recorded log10 IC50.
> print(dat)
                           molecular.string  test.value
1  NCc1ccc(-c2ccc(-c3c(-c4ccccc4)c(=O)n(O)c4ncc(F)cc34)cc2)cc1        0.87
2  O=c1cc(NCc2ccc(CN3CCOCC3)cc2)c2cccnc2n1O        0.26
3  NCc1ccc(-c2ccc3c(c2)CN(c2cc(=O)n(O)c4ncccc24)C3)cc1        1.66
4         COc1ccccc1CNc1cc(=O)n(O)c2ncccc12       -0.25

Now take the following compound into account.
Task: Which log10 IC50 reading was recorded for the compound "COC(=O)c1ccc2c(c1)CCN(c1cc(=O)n(O)c3ncccc13)C2" ?
Result: -0.22
